src = patent US4157392A

- Tested on: carrageenin-induced edema in the hind paw of a rat
- Measurement protocol: Carrageenin Assay (carrageenin-induced edema, hind paw)
- Type: in vivo, rat (male, Long Evans strain)
- Assay setup: Rattus norvegicus; 200 mg/kg oral, 1 h before carrageenin; edema at 3 h; compared to phenylbutazone control values; read-out: % Reduction of Edema
# inhibition in vivo at 200 mg/kg >= 20% gives Fulfilled, anything below gives Not fulfilled

# example entries with known answers
[in] Please check the record `COc1nncc(-c2cccc3ccccc23)n1` and state if its inhibition in vivo at 200 mg/kg is at or above 20%.
[out] Fulfilled

[in] Answer whether inhibition in vivo at 200 mg/kg of `C[C@@H]1CC[C@H](C)N1c1nnc(-c2ccccc2)c(-c2ccccc2)n1` is greater than or equal to 20%.
[out] Fulfilled

[in] Please indicate if the recorded inhibition in vivo at 200 mg/kg for `COc1nnc(-c2ccccc2)c(-c2ccccc2)n1` meets or exceeds 20%.
[out] Not fulfilled

[in] Please tell me: is the compound `CN(CCO)c1nnc(-c2ccccc2)c(-c2ccccc2)n1` at or over 20% in terms of inhibition in vivo at 200 mg/kg?
[out] Fulfilled

Next:
[in] hey, is inhibition in vivo at 200 mg/kg for this one >= 20%? `CSc1nncc(C2CC2)n1`
[out] Fulfilled

[in] In plain terms: is recorded inhibition in vivo at 200 mg/kg at least 20% for `CCOc1nnc(-c2ccccc2)c(-c2ccccc2)n1` ?
[out] Not fulfilled

---

- Test system: phenylquinone writhing in mice
- Measurement protocol: Phenylquinone Writhing Assay (analgesia)
- Type: in vivo, mouse (Carworth CF1 male mice)
- Assay setup: Mus musculus, po, 0.5 h, 100 mg/kg oral, 30 Min.; read-out: Phenylquinone Writhing Assay (% Control), percent analgesia
# key: entry, value: responders at 100 mg/kg
The answer consists of two parts: a number and, after it, its unit.

Kindly note the recorded responders at 100 mg/kg for `CSc1nncc(C(C)(C)C)n1` , which is 20%

Kindly note the recorded responders at 100 mg/kg for `CSc1nncc(-c2ccc(F)cc2F)n1` , which is 10%

Value of responders at 100 mg/kg reported for the molecule `COc1ccc(-c2cnnc(SC)n2)cc1` is 10%

Field responders at 100 mg/kg (entry `OCCNc1nncc(-c2ccccc2)n1` ) reads 10%

Sure, the documented responders at 100 mg/kg for `CSc1nncc(-c2ccc(N3CCOCC3)cc2)n1` is 10%

What the record says about `NNc1nncc(-c2cccc(C(F)(F)F)c2)n1` : responders at 100 mg/kg is 60%

// `Cc1nnc(S(C)(=O)=O)nc1C` : responders at 100 mg/kg value = 30%

Item: `COc1nncc(-c2ccc(OC)c(OC)c2)n1` | responders at 100 mg/kg: 20%

Others:
The reported value for `C[C@@H]1CC[C@H](C)N1c1nnc(-c2ccccc2)c(-c2ccccc2)n1` in terms of responders at 100 mg/kg is 30%

get_value(item= `COc1cc(-c2cnnc(SC)n2)ccc1O` , readout=responders at 100 mg/kg) returns 10%

---

- System: phenylquinone writhing in mice
- Measurement protocol: Phenylquinone Writhing Assay (analgesia)
- Format: in vivo, mouse (Carworth CF1 male mice)
- Assay setup: Mus musculus, po, 0.5 h, 100 mg/kg oral, 30 Min.; read-out: Phenylquinone Writhing Assay (% Control), percent analgesia
- Description: The phenylquinone writhing test was employed to evaluate analgesic activity according to the following procedure: Phenylquinone (phenyl-p-benzoquinone, No. 7104, Eastman Organic Chemicals) is made up as a 0.02% aqueous solution in 5% ethyl alcohol. Phenylquinone solutions are made up fresh twice daily. Standard reference agents and the test compounds are dissolved or suspended in a 0.25% methylcellulose solution. […]
Where a name gives a salt, the structure may show the parent alone.
# key: entry, value: responders at 100 mg/kg
Unit % implied. Number only.

In the examples that follow, each entry is paired with its recorded responders at 100 mg/kg.
responders at 100 mg/kg reading for `CSc1nncc(-c2ccc(Br)cc2)n1` : 10

Field responders at 100 mg/kg (entry `COc1ccc(-c2nnc(SC)nc2-c2ccc(OC)c(OC)c2)cc1OC` ) reads 10

compound `COc1nnc(-c2ccc(OC)c(OC)c2)c(-c2ccc(OC)c(OC)c2)n1` , responders at 100 mg/kg observed: 10

Looking up `CSc1nncc(-c2ccccc2)n1` , I found its responders at 100 mg/kg recorded as 10

Form field responders at 100 mg/kg, entry `C=CCOc1nnc(C)c(C)n1` : 30

What the record says about NC(Cc1ccccc1)C(=O)NNc1nncc(-c2ccccc2)n1 (stereo not shown) [Example 116, (dihydrobromide hydrate)] : responders at 100 mg/kg is 60

Lookup result for `c1ccc(-c2nnc(-c3ccccn3)nc2-c2ccccc2)cc1` ; measured responders at 100 mg/kg: 20

Quick note, responders at 100 mg/kg for `CSc1nnc(C)c(C)n1` landed at 70

Further cases:
For `CSc1nncc(C23CC4CC(CC(C4)C2)C3)n1` the compound record lists responders at 100 mg/kg as 10

Value of responders at 100 mg/kg reported for the compound `CSc1nncc(-c2cccc3ccccc23)n1` is 10

Sure, the documented responders at 100 mg/kg for `COc1nncc(-c2ccc3ccccc3c2)n1` is 10

Field responders at 100 mg/kg (entry `COc1ccc(-c2cnnc(OC)n2)cc1` ) reads 10

// responders at 100 mg/kg value for `COc1ccc(-c2nnc(N(C)CCO)nc2-c2ccc(OC)cc2)cc1` : 100

Item: `COc1cccc(-c2cnnc(OC)n2)c1` | responders at 100 mg/kg: 20

The value of responders at 100 mg/kg measured for the compound `CSc1nncc(-c2ccc(Cl)s2)n1` turned out to be 20

// `CSc1nnc(-c2ccccn2)c(-c2ccccn2)n1` : responders at 100 mg/kg value = 10

Briefly, responders at 100 mg/kg measured for `CSc1nncc(-c2cc3ccccc3o2)n1` : 10

For `COc1nnc(-c2ccc(Cl)cc2)c(-c2ccc(Cl)cc2)n1` the compound record lists responders at 100 mg/kg as 30

Looking up `COc1ccc(-c2nnc(SC)nc2-c2ccc(OC)cc2)cc1` , I see its responders at 100 mg/kg listed as 30

responders at 100 mg/kg recorded for this compound, `Cc1ccc(-c2nnc(C)nc2-c2ccc(C)cc2)cc1` , is 80

Lab note: `CC(C)Oc1nnc(-c2ccccc2)c(-c2ccccc2)n1` gave responders at 100 mg/kg of 10

Recorded responders at 100 mg/kg (compound `CSc1nncc(-c2c3ccccc3cc3ccccc23)n1` ): 10
